Cited source for all entries: a melting point compilation (Tetko et al.; mined from patent text by program, amines drawn as free bases though some values may be those of a salt)

Overview of recorded melting point for various molecules

In the examples that follow, each entry is paired with its recorded melting point.
molecule	melting point
CCOC(=O)c1ccc(NC(C)=O)c(CC(O)CO)c1 (configuration not stated)	114 to 116 °C
O=C(O)CCC(C(=O)O)N1C(=O)c2ccccc2C1=S (configuration not stated)	157 °C
OCc1cc2cc(OCc3ccccc3)ccc2[nH]1	106 to 107 °C
O=C(O)CCCCCOc1ccc([N+](=O)[O-])cc1	104 to 107 °C
Nc1nc(Nc2ccccc2)nc(-c2cc(Cl)ccc2Cl)n1	180 to 181 °C
C[Si](C)(C)c1cc(Cl)sc1C(=O)NCCOS(C)(=O)=O	82 to 86 °C
COC(=O)c1ccc(NC(=O)CC(=O)C(C)C)cc1	54 to 56 °C
O=C(Cn1c(-c2ccc(Cl)cc2)nc2cccnc21)NCc1ccccc1	200 °C
CC(=O)CCC(=O)C1=Cc2ccccc2C1	85 °C
COc1ccc(Nc2cc(-c3ccccc3)nc(N3CCC(O)CC3)n2)cc1Cl	188 to 191 °C

Req: Returns the measured melting point for the input molecule. Input: CS(=O)(=O)c1ccc(C(CC2CCCC2)C(=O)Nc2cnccn2)cc1[N+](=O)[O-] (configuration not stated)
Resp: 104 to 108 °C

Req: State the recorded melting point for this entry: O=C1CCCCC1c1cncc(Br)c1 (configuration not stated)
Resp: 67 to 69 °C

Req: Need melting point of CC(C)Nc1cccnc1N1CCN(C(=O)c2ccc(C(=O)N3CCN(C)CC3)cc2)CC1 , thanks.
Resp: 158 to 160 °C

Req: Look up melting point for this molecule: CC(=O)Oc1cc(OC(C)=O)c2c(c1)Oc1ccccc1C2C#N (configuration not stated)
Resp: 160 to 161 °C

Req: Query (molecule): O=Cc1cnc2c(OCc3ccccc3)cccn12 ; field requested: melting point
Resp: 167 °C

----------
# melting point per record follows

For orientation, consider the following solved cases.
molecule	melting point
COC(=O)c1ccc(SC)c([N+](=O)[O-])c1	118 to 120 °C
CCCn1c(=O)c2c(ncn2CCCCC(C)=O)n(C)c1=O	76 to 78 °C

Pending molecule:
Req: Would you mind telling me what melting point value was observed for Cc1cc(NNC(=O)OC(C)(C)C)c([N+](=O)[O-])c(N(Cc2ccccc2)Cc2ccccc2)n1 ?
Resp: 60 to 67 °C

----------
readout-label: melting point

Field: example entries. Status: answers known.
compound	result
COc1cc2c(c([N+](=O)[O-])c1)NCCC2=O	161 to 162 °C
Nc1nc(O)c2c(n1)NCC(CCc1cc(C(=O)O)n[nH]1)C2 (stereo not given)	> 260 °C
O=C(CCCCCBr)c1cc2c3c(c1)CCN3C(=O)CC2	97 to 98 °C

Req: I am curious: what melting point value has been reported for COC1C=C(C)C(=O)CC(C)(C)C1OC(=O)c1ccc([N+](=O)[O-])cc1 (stereo not given) ?
Resp: 122 to 123 °C

Req: Which measured melting point value corresponds to CCc1c(Oc2c(Cl)cc(C(F)(F)F)cc2Cl)n[nH]c1C ?
Resp: 215 to 218 °C

----------
Documented melting point across a set of molecules

Req: Need melting point, item NC(=O)N1C(=O)C(C(=O)c2ccc(Cl)s2)c2cc(Cl)ccc21 (configuration not stated)
Resp: 220 to 222 °C

Req: What does the record list as melting point for ClCc1nc(-c2ccccc2)c(-c2ccccc2)o1 ?
Resp: 43 to 45 °C

Req: What value of measured melting point is listed for Cc1ccc(-n2c(-c3sc(Nc4ccc(Cl)cc4)nc3C)nc3ccccc3c2=O)cc1 ?
Resp: > 275 °C

Req: Entry Oc1ccc2c(c1CNc1ccc(F)cc1F)CCCO2 has what melting point?
Resp: 120 to 121 °C

----------
Catalogue of melting point values

compound	readout-label	result
CCn1c(N)c(C(=O)NC)c(=O)c2ccc(-c3ccc(CC(=O)O)cc3)nc21	melting point	260 °C

Req: Reported melting point, compound CCN(c1nc(C)cc(C(C)Cn2cnnn2)n1)c1ccc(C(C)C)cc1Br (stereo not drawn) : ____
Resp: 127 to 129 °C

Req: Give its melting point value. Item: Cc1cc(OCC(=O)O)c(C(C)C)cc1SCc1sc(-c2ccc(C(F)(F)F)cc2)nc1C
Resp: 168 to 171 °C

Req: Given the entry O=C(NC1CCc2ccc([N+](=O)[O-])cc2C1)c1ccccc1 (stereo not drawn) , report its measured melting point.
Resp: 194 to 198 °C

----------
Each entry below lists one item and its recorded melting point value.

compound	melting point
CC(=O)NC1C(Oc2ncn(Cc3ccc([N+](=O)[O-])cc3)c2C(N)=O)OC(COC(C)=O)C(OC(C)=O)C1OC(C)=O (configuration not stated)	114 to 117 °C
NCc1cccc(CNc2ncc3ncnc(Nc4ccc(F)c(Cl)c4)c3n2)c1	179 to 182 °C

Req: Can you look up the measured melting point of COc1ccc(-c2nnn(-c3ccc(C(F)(F)F)cc3Cl)c2N)cc1 for me?
Resp: 130 to 131 °C

Req: # melting point lookup, item CSc1sc(C(=O)O)c2c1-c1nn(C)cc1CC2
Resp: 290 to 291 °C

Req: // returns reported melting point for input O=C(O)C1CCc2nc3cc(Cl)ccc3c(Cl)c2C1 (configuration not stated)
Resp: > 250 °C

Req: Quick one: melting point for O=C(O)c1ccc(/C=C/c2cnc3ccccc3c2)cc1 ?
Resp: 287 to 290 °C

Req: Which melting point is listed for Nc1sc(CC(C(=O)O)C(=O)O)cc1C(=O)c1ccccc1Cl ?
Resp: 150 to 160 °C

Req: Name the reported melting point value associated with the compound Cc1ccc(Oc2cc(-c3ccc(Br)cc3)oc2-c2ccc(Br)cc2)cc1
Resp: 92 to 93 °C

Req: Need melting point, item CCOC(=O)Nc1nc(C)c(-c2nc3ccccc3c(=O)n2-c2ccccc2Cl)s1
Resp: 246 to 247 °C

Req: Query: melting point; subject: COC(=O)CN(C)c1nc(-c2ccc(Br)cc2)cs1
Resp: 86 °C

Req: Look up melting point: CC(C)C1(C)C(=O)N=C2c3ncc(C4OCCO4)cc3C(=O)N21 (configuration not stated)
Resp: 146 to 148 °C

Req: # get_value(readout='melting point', item= C[C@@H](CO)CCn1c(C(=O)NCc2cc(C(F)(F)F)cc(C(F)(F)F)c2)c(-c2ccc(Cl)cc2)c2cccnc2c1=O )
Resp: 259 to 261 °C

----------
Listing of recorded melting point by entry.

For orientation, consider the following solved cases.
compound	result
CCCC(=O)Cc1ccc(C(=O)Nc2ccc3cc(CN4CCCCCC4)cnc3c2C)cc1	136 to 137 °C
COc1cc(C(=O)/C=C/c2c(-c3ccc(F)cc3)nc3sccn23)cc(OC)c1OC	222 to 225 °C

Switching to the query record.
Req: Quick check: melting point of NS(=O)(=O)c1cc2nc[nH]c2cc1Cl ?
Resp: 244 °C

----------
readout-label: melting point

Worked examples follow.
compound	readout-label	result
Nc1nc2c(sc(=O)n2C2CC(O)C(CO)O2)c(=O)[nH]1 (centres undefined)	melting point	> 170 °C
C[Si](C)(C)CCOC(=O)c1cccc(NC(=O)NCC(=O)O)c1	melting point	173 °C
CC1=C(CCO)c2cc(F)ccc2C1	melting point	65 to 66.5 °C

Next:
Req: Reported melting point, compound CCCOC(=O)c1cc(=O)c2c(OCc3ccc(OCc4ccc5ccccc5n4)cc3)c(Cl)ccc2o1 : ____
Resp: 173 to 174 °C

----------
This section presents molecules with their documented melting point values.

Reference set (5 entries):
molecule	melting point
COC(=O)[C@@H]1C[C@H](O[Si](C)(C)C)C(=O)[C@H]2[C@@]1(C)CC[C@H]1C(=O)O[C@H](c3ccoc3)C[C@]21C	197 to 200 °C
O=C1NN(C(=O)c2ccccc2NCc2ccccc2)Cc2ccccc21	206 to 208 °C
CN1CCN(C(=O)c2ccc(N)cc2C(F)(F)F)CC1	154 to 156 °C
O=c1nc(-c2ccccc2)c2cc([N+](=O)[O-])ccc2n1CC1CC2CCC1C2 (centres undefined)	160 °C
O=C(O)[C@@]12C[C@@H](c3ccccc31)c1ccc(Cl)cc12	172 to 173 °C

Req: What melting point value was documented for this molecule, Cc1nc(N2CCCC(Cc3ccc(C(F)(F)F)cc3)C2=O)sc1C(=O)NCc1ccccc1 (centres undefined) ?
Resp: 217 to 218 °C

Req: What measured melting point goes with O=C1NCCc2c(-c3ccccc3CCCO)[nH]c3cccc1c23 ?
Resp: 234 °C

Req: // lookup melting point for CCOc1cccc(-c2cc3n(n2)-c2ccccc2CC3)c1
Resp: 99 to 100 °C

----------
Collected melting point values appear next to each entry.

Below, each entry is followed by its recorded melting point result.
compound	melting point
COC(=O)c1nc2c(c(-c3ccccc3)nn2-c2ccccc2)c(N)c1C(=O)OC	277 to 279 °C
COC(=O)C(CC(=S)c1ccc(C)cc1)C(C)=O (centres undefined)	110 to 112 °C
CCCCCCCCCCCCCCCCCC(=O)Nc1cccc(N(CC(=O)OC)CC(=O)OC)c1	78 to 79 °C

Next, consider the following compound.
Req: Query: melting point; subject: COc1ccc(CNc2nc(CCCC(=O)O)nc3[nH]c4ccccc4c23)cc1Cl
Resp: 143 °C
